Test: caspase-8 TRAIL sensitization, hit retest, confirmation, cell-based, NB7+caspase-8, with/without TRAIL, luminescence panel (AID 651596)
Details: NB7 neuroblastoma + caspase-8, without TRAIL, luminescence viability, without TRAIL, mean of runs, at 10 µM
In plain terms, low activity, meaning strictly below 80%, gives satisfied, and everything else gives not satisfied.

{"COMPOUND": "Fc1ccc(-c2cnn3c(-c4ccncc4)ccnc23)cc1", "CATEGORY": "satisfied"}
{"COMPOUND": "CC(=O)c1cccc(NC(=O)CSc2ccc(-c3ccc4c(c3)OCO4)nn2)c1", "CATEGORY": "satisfied"}
{"COMPOUND": "Cc1ccc(-c2nc(N/N=C/c3ccncc3)c3ccccc3n2)cc1", "CATEGORY": "not satisfied"}
{"COMPOUND": "Clc1ccc(-n2ncc3c(N4CCCC4)ncnc32)cc1", "CATEGORY": "satisfied"}
{"COMPOUND": "CCOC(=O)c1sc(NC(=O)c2cccc(S(=O)(=O)N3CCc4ccccc43)c2)c(C#N)c1C", "CATEGORY": "satisfied"}
{"COMPOUND": "O=c1c2cc(-c3ccccc3)sc2nc2n1N=C(c1cccs1)CS2", "CATEGORY": "satisfied"}
{"COMPOUND": "Cc1ccc(C)c(C(=O)Cn2ncc(Cl)c(Cl)c2=O)c1", "CATEGORY": "not satisfied"}
{"COMPOUND": "COCCn1c(C)cc(C2=NNC(=NC3CC3)SC2)c1C", "CATEGORY": "not satisfied"}
{"COMPOUND": "O=[N+]([O-])c1ccc(Sc2ccncn2)c([N+](=O)[O-])c1", "CATEGORY": "satisfied"}
{"COMPOUND": "Cc1ccc(-c2nnc(NC(=O)c3ccco3)s2)cc1", "CATEGORY": "satisfied"}
{"COMPOUND": "COc1cc2c(cc1OC)C(c1ccccc1)N(C(=O)CCl)CC2 (stereo not drawn)", "CATEGORY": "not satisfied"}
{"COMPOUND": "CC(C)(C)c1ccc(-c2nnc(N)s2)cc1", "CATEGORY": "satisfied"}
{"COMPOUND": "O=C(Nc1ccc(OCC(F)(F)C(F)F)c(C(F)(F)F)c1)c1ccc(Cl)cc1", "CATEGORY": "satisfied"}
{"COMPOUND": "CCOC(=O)c1cnc2c(-c3ccccc3)cnn2c1C", "CATEGORY": "satisfied"}
{"COMPOUND": "COc1ccc(C2C(C(=O)N3CCN(c4ccccc4)CC3)c3ccccc3C(=O)N2C)cc1OC (stereo not drawn)", "CATEGORY": "satisfied"}
{"COMPOUND": "O=C(Cn1ncc(Cl)c(Cl)c1=O)NC1CCCCC1", "CATEGORY": "not satisfied"}
{"COMPOUND": "Cn1c(=N)n(CC(=O)c2ccc(F)cc2)c2ccccc21", "CATEGORY": "satisfied"}
{"COMPOUND": "Cc1ccc(-c2nc(N/N=C/c3ccccc3[N+](=O)[O-])c3ccccc3n2)cc1", "CATEGORY": "not satisfied"}
{"COMPOUND": "Cc1ccc(S(=O)(=O)N2C[C@H]3[C@H]4C(=O)N(C5CCCCC5)C(=O)[C@H]4CC(=O)[C@H]3[C@@H]2c2cccc3ccccc23)cc1", "CATEGORY": "satisfied"}
{"COMPOUND": "COc1cc(SC)ccc1C(=O)Nc1nc(C)cs1", "CATEGORY": "not satisfied"}
{"COMPOUND": "COc1ccc(-c2nn(-c3ccccc3)cc2/C=N/NC(=O)c2ccc(Br)o2)cc1", "CATEGORY": "satisfied"}
{"COMPOUND": "COc1ccc(NC(=O)c2ccc(OC)cc2)cc1", "CATEGORY": "satisfied"}
{"COMPOUND": "Cc1cc(N/N=C/c2ccccc2Cl)nc(NCc2ccccc2)n1", "CATEGORY": "satisfied"}
{"COMPOUND": "C=C(C)c1nc(Oc2ccccc2)nc(Oc2ccccc2)n1", "CATEGORY": "satisfied"}
{"COMPOUND": "O=C(N/N=C/c1ccc(-c2cccc(C(F)(F)F)c2)o1)c1cccc(F)c1", "CATEGORY": "satisfied"}
{"COMPOUND": "COc1cccc(NC(=O)Nc2ccc3c(c2)nc(C)n3C)c1", "CATEGORY": "not satisfied"}
{"COMPOUND": "COc1ccc(/C=N/Nc2cc(OC)ncn2)cc1", "CATEGORY": "satisfied"}
{"COMPOUND": "O=C(Oc1ccc2ccccc2c1Cl)N1CCCCCC1", "CATEGORY": "satisfied"}
{"COMPOUND": "CCc1ccc(-n2nc3cc(C)c(N)cc3n2)cc1", "CATEGORY": "satisfied"}
{"COMPOUND": "NC(Cc1ccc(C(F)(F)F)cc1)c1csc(NC(=O)Nc2ccccc2Oc2ccccc2)n1 (stereo not drawn)", "CATEGORY": "not satisfied"}
{"COMPOUND": "O=C(NC1=NCCS1)c1cc2ccccc2o1", "CATEGORY": "satisfied"}
{"COMPOUND": "O=C1CC(c2ccc3c(c2)OCCO3)Oc2ccc([N+](=O)[O-])cc21 (stereo not drawn)", "CATEGORY": "satisfied"}
{"COMPOUND": "CCCCCCCCCCCC1N=C(N)NC(CCCO)=C1C(=O)OC (stereo not drawn)", "CATEGORY": "satisfied"}
{"COMPOUND": "CNc1ncnc(Sc2nc(N)nc3nc[nH]c23)c1[N+](=O)[O-]", "CATEGORY": "satisfied"}
{"COMPOUND": "COc1ccc(C(=O)c2no[n+]([O-])c2C(=O)c2ccc(OC)cc2)cc1", "CATEGORY": "not satisfied"}
{"COMPOUND": "O=C(/C=C/c1cccnc1)/C=C/c1cccnc1", "CATEGORY": "satisfied"}
{"COMPOUND": "CS(=O)(=O)c1nc(-c2ccc(Br)cc2)cc(-c2ccccc2)c1C#N", "CATEGORY": "not satisfied"}
